# Test system: Rattus norvegicus
# assay_text: Skeletal muscle relaxant activity in iv dosed chronic spinal Sprague-Dawley rat assessed as reduction of flexor spasm administered every 15 mins interval
# Assay type: functional
# measurement_parameters: 0.25 h
assay_metric: ED70

Examples with their reported ED70 follow.
compound	ED70
NCc1cc(O)no1 [MUSCIMOL]	16 mg/kg
NCc1cc(=O)c(O)co1	8 mg/kg
CC(N)C(=O)NCc1cc(=O)c(O)co1 (centres undefined)	8 mg/kg

IN: Endpoint output: ED70 of NCC(=O)NCc1cc(=O)c(O)co1 . Value?
OUT: 8 mg/kg

---

A collection of molecules and their measured pKa
# assay_text: Dissociation constant, pKa of the compound
# Assay type: physicochemical
Write the value as a bare number.

Consider the reported pKa for these molecules:
NCc1cc(=O)[nH]o1 4.78
NCCCC(=O)O 4.04
O=c1cc(CO)occ1O 7.95

Attention now turns to another entry.
IN: // query pKa value for entry NCc1cc(=O)c(O)co1
OUT: 6.6
